# TESTED ON: α4β7 integrin interaction with MadCAM-1 (RPMI8866 cells) (Homo sapiens, UniProt P13612+P26010)
# Construct: α4β7 integrin expressing cells; endogenous in cells
# Sequence (P13612 34-1032): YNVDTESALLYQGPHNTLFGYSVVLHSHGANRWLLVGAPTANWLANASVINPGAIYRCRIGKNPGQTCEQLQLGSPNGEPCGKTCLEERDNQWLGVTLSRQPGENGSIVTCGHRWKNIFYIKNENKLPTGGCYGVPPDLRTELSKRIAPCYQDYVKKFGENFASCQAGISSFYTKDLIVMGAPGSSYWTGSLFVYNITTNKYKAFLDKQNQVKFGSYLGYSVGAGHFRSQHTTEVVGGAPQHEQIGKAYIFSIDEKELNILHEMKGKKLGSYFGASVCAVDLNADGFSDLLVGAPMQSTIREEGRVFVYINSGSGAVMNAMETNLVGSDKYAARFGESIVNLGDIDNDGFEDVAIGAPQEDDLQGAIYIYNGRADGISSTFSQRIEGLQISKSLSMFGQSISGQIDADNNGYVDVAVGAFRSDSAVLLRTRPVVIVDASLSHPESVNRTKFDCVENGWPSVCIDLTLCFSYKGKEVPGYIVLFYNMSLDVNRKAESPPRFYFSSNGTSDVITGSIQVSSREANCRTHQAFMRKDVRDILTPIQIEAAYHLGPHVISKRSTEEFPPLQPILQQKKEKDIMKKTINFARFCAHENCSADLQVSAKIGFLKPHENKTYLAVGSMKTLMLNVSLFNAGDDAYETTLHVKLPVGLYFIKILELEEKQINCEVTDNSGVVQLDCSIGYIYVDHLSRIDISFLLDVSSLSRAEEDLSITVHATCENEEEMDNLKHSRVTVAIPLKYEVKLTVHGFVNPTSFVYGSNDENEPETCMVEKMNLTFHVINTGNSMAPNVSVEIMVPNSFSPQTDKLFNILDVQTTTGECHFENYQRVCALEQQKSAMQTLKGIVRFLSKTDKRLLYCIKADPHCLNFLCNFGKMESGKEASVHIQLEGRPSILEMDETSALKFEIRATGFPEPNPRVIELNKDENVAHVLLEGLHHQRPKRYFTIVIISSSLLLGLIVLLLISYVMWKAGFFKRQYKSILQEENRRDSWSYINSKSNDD
# Sequence (P26010 20-798): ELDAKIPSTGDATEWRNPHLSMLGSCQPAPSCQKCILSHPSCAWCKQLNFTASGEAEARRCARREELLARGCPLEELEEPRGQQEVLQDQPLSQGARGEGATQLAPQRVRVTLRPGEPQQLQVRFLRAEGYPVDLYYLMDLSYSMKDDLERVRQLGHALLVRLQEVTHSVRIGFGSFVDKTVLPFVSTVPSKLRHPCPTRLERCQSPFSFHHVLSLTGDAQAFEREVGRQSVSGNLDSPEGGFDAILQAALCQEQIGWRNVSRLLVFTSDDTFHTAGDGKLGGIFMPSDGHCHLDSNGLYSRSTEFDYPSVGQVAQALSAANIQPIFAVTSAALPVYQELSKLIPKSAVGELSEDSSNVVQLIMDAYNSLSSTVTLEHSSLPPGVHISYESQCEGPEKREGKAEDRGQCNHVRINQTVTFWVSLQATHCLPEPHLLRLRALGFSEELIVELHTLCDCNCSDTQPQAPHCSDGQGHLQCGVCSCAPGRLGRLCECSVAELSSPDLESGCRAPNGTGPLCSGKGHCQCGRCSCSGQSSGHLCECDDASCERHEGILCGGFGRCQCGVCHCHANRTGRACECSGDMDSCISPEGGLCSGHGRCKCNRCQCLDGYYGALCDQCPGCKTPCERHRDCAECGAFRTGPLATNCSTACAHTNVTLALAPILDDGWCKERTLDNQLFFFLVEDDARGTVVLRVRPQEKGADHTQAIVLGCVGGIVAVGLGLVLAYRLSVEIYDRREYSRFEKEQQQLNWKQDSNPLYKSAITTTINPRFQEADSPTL
# ASSAY COMMENT: α4β7 Integrin Cell Capture Assay
# ASSAY CONTEXT: capture of α4β7 integrin expressing RPMI8866 cells on recombinant MadCAM-1 extracellular domain-coated plate; 0.5 mM MnCl2
QUANTITY MEASURED: EC50 (nM)

Observe how each entry below is paired with its result.
1. Cc1cc(N2CCOC[C@@H]2C(F)(F)F)cc(F)c1C(=O)N[C@@H](Cc1ccc(-c2nc(C)c(C)n(C)c2=O)c2c1CCCO2)C(=O)O [Example 165] = 0.25
2. Cc1nc(-c2ccc(C[C@H](NC(=O)c3c(F)cc(N4CCOC[C@@H]4C(F)(F)F)cc3F)C(=O)O)c3c2CCC3)c(=O)n(C)c1C [Example 193] = 0.264
3. Cc1nc(-c2ccc(C[C@H](NC(=O)c3c(F)cc(N4CCO[C@@H](C)C4)cc3F)C(=O)O)c3c2OCCC3)c(=O)n(C)c1C [Example 157] = 1.82
4. COc1cc(C)n(C)c(=O)c1-c1ccc(C[C@H](NC(=O)c2c(C)cc(N3CCOC[C@@H]3C(F)(F)F)cc2F)C(=O)O)c2c1OCCC2 [Example 166] = 0.195
5. Cn1nc(C(F)(F)F)cc(-c2ccc(C[C@H](NC(=O)c3c(F)cc(N4CCOC[C@@H]4C(F)(F)F)cc3F)C(=O)O)c3c2OCCC3)c1=O [Example 133] = 1.42
6. Cn1cc(-c2ccc(C[C@H](NC(=O)c3c(F)cccc3F)C(=O)O)c3c2OCCC3)c(=O)n(C)c1=O [Example 73] = 17.3
7. Cc1cc(N2CCOC[C@@H]2C(F)(F)F)cc(F)c1C(=O)N[C@@H](Cc1ccc(-c2nc(C)c(C)n(C)c2=O)c2c1CCC2)C(=O)O [Example 199] = 0.19
8. Cc1cc(N2CCOC[C@@H]2C(F)(F)F)cc(F)c1C(=O)N[C@@H](Cc1ccc(-c2c(Cl)cc(C)n(C)c2=O)c2c1CCCO2)C(=O)O (atropisomer, axis not shown) [Example 137] = 0.089
9. Cn1c(=O)c(-c2ccc(C[C@H](NC(=O)c3c(F)cc(N4CCOC[C@@H]4C(F)(F)F)cc3F)C(=O)O)c3c2OCCC3)cc2cnccc21 [Example 171] = 0.201
10. Cc1cc(N2CCOC[C@@H]2C(F)(F)F)cc(F)c1C(=O)N[C@@H](Cc1ccc(-c2nc(C)c(C)n(C)c2=O)c2c1OCCO2)C(=O)O [Example 179] = 0.267

I: Cc1cc(N2CCC2)c(-c2ccc(C[C@H](NC(=O)c3c(F)cc(N4CCOC[C@@H]4C(F)(F)F)cc3F)C(=O)O)c3c2OCCC3)c(=O)n1C (atropisomer, axis not shown) [Example 152]
II: O=C(N[C@@H](Cc1ccc(-c2ncc3ccccc3c2Br)c2c1CCCO2)C(=O)O)c1c(F)cccc1F [Example 65]
-- ask Of I versus II , which is the one with smaller reported EC50? Please indicate the selected item by its label.
-- reply I

P: Cc1nc(C)n(C)c(=O)c1-c1ccc(C[C@H](NC(=O)c2c(F)cc(N3CCOC[C@@H]3C(F)(F)F)cc2F)C(=O)O)c2c1OCCC2 (atropisomer, axis not shown) [Example 118]
Q: Cc1cc(N2CCOC[C@@H]2C(F)(F)F)cc(F)c1C(=O)N[C@@H](Cc1ccc(-c2c(C(F)(F)F)cc(C)n(C)c2=O)c2c1COC2)C(=O)O [Example 188]
-- ask // compare measured EC50, left P , right Q , return larger Please indicate the selected item by its label.
-- reply Q

A: CC[C@@H](Nc1cc(F)c(C(=O)N[C@@H](Cc2ccc(-c3c(C)n(C)c(=O)n(C)c3=O)c3c2CCCO3)C(=O)O)c(F)c1)C(F)(F)F (single isomer, unassigned) [Example 56]
B: Cc1c(C)c(C)n(C)c(=O)c1-c1ccc(C[C@H](NC(=O)c2c(F)cc(N3CCOC[C@@H]3C(F)(F)F)cc2F)C(=O)O)c2c1OCCC2 [Example 154]
-- ask Of A versus B , which is the one with smaller reported EC50? Please indicate the selected item by its label.
-- reply B
(B: 0.358 nM, A: 0.961 nM)

Data provenance is patent US20220226337A1.
